The measured values listed here are drawn from patent US11072618B2.

Task for the reader: assign each of the following compounds its reported pIC50.
- System Tested: GST-human receptor interacting protein kinase 1 fusion (8-327) enzyme (Homo sapiens)
- Test Summary: Fluorescent Polarization Binding (FP Binding) assay, receptor interacting protein kinase 1
- Run Parameters: 10 nM enzyme, 5 nM fluorescent-labeled ligand, RT 30 min, mean of a minimum of two independent experiments
pIC50: −log10 of the molar value.

Query block: Entry CC1(C)CCN2CCC(c3ccccc3)N2C1=O (centres unmarked) [Compound 8] has what pIC50?
Result block: 4.52 to 6.00

Query block: What does the record list as pIC50 for CC1(C)CN2CC[C@@H](c3ccccc3)N2C1=O [Compound 1] ?
Result block: > 6.00

Query block: Name the reported pIC50 value associated with the compound CCCC1(C)CN2CCC(c3cccc(F)c3)N2C1=O (centres unmarked) [Compound 16]
Result block: > 6.00

Query block: Form field: reported pIC50 of CCC1(C)CN2CCC(c3cccc(F)c3)N2C1=O (centres unmarked) [Compound 7]
Result block: > 6.00

Query block: I'd like to know its pIC50. The compound in question is CCC1(CCl)CN2CCC(c3cccc(F)c3)N2C1=O (centres unmarked) [Compound 29]
Result block: > 6.00

---

- System Tested: GST-human receptor interacting protein kinase 1 fusion (8-327) enzyme (Homo sapiens, UniProt Q13546)
- Sequence (Q13546 8-327): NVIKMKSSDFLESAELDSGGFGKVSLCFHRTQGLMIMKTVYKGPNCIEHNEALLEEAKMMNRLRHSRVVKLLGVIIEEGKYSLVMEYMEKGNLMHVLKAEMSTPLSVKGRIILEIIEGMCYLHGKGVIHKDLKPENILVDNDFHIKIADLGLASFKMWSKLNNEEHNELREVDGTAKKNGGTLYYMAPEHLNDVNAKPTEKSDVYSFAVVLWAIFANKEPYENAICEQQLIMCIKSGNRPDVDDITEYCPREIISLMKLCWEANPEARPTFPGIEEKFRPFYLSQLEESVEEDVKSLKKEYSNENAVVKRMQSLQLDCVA
- Test Summary: Fluorescent Polarization Binding (FP Binding) assay, receptor interacting protein kinase 1
- Run Parameters: 10 nM enzyme, 5 nM fluorescent-labeled ligand, RT 30 min, mean of a minimum of two independent experiments
Quantity: IC50

Query block: Return reported IC50; argument: CCC1(C)CN2CCC(c3cncc(F)c3)N2C1=O (centres unmarked) [Compound 26]
Result block: 1000 to 30000 nM

Query block: Can you look up the measured IC50 of CC(F)(F)C1(C)CN2CCC(c3cncc(C#N)c3)N2C1=O (single isomer, unassigned) [Compound 36] for me?
Result block: 1000 to 30000 nM

Query block: State the recorded IC50 for this entry: CCC1(C(F)F)CN2CCC(c3cccc(F)c3)N2C1=O (centres unmarked) [Compound 20]
Result block: < 1000 nM

Query block: Quick one: IC50 of CCC1(C)CN2CCC(c3ccc(F)c(F)c3)N2C1=O (centres unmarked) [Compound 10] ?
Result block: < 1000 nM

Query block: # IC50 lookup, item CCC1(CC)CN2CCC(c3ccc(F)cc3)N2C1=O (centres unmarked) [Compound 2]
Result block: 1000 to 30000 nM

Query block: So what does the record say about IC50 for CCC1(C(F)F)CN2CCC(c3cncc(C#N)c3)N2C1=O (centres unmarked) [Compound 19] ?
Result block: < 1000 nM

Query block: Data request, read-out IC50, for O=C1N2C(c3cncc(F)c3)CCN2CC1(CC1CC1)C(F)F (centres unmarked) [Compound 53]
Result block: 1000 to 30000 nM

Query block: May I ask what IC50 has been recorded for CCC1(CF)CN2CCC(c3cccc(F)c3)N2C1=O (centres unmarked) [Compound 30] ?
Result block: < 1000 nM

Query block: Recorded IC50 for CCC1(C(F)F)CN2CCC(c3cncc(Br)c3)N2C1=O (centres unmarked) [Compound 18] , please?
Result block: < 1000 nM

Query block: Reported IC50 for CC1(CC2CC2)CN2CCC(c3cccc(F)c3)N2C1=O (centres unmarked) [Compound 17] : what is it?
Result block: < 1000 nM

Query block: Which IC50 reading was recorded for the compound CCC1(C(F)F)CN2CCC(c3cncc(F)c3)N2C1=O (centres unmarked) [Compound 34] ?
Result block: 1000 to 30000 nM

Query block: Which IC50 is reported for this compound? CCCC1(C)CN2CCC(c3cccc(F)c3)N2C1=O (centres unmarked) [Compound 15]
Result block: 1000 to 30000 nM

Query block: Requested field: IC50. Item: CC1(CC(F)(F)F)CN2CCC(c3cncc(F)c3)N2C1=O (centres unmarked) [Compound 51]
Result block: 1000 to 30000 nM

Query block: Consider the compound shown here: CC(F)(F)C1(C)CN2CCC(c3cc(F)cc(C#N)c3)N2C1=O (centres unmarked) [Compound 43] What is its recorded IC50?
Result block: 1000 to 30000 nM

Query block: Report IC50 for CCC1(C)CN2CCC(c3cncc(F)c3)N2C1=O (centres unmarked) [Compound 25] please.
Result block: < 1000 nM

Query block: Field request: IC50 | item: CCCC1(C(F)F)CN2CCC(c3cncc(C#N)c3)N2C1=O (centres unmarked) [Compound 54]
Result block: < 1000 nM

Query block: Reported IC50, compound CC(F)(F)C1(C)CN2CCC(c3cccc(F)c3)N2C1=O (centres unmarked) [Compound 13] : ____
Result block: < 1000 nM

Query block: // IC50 lookup, key: CCC1(C)CN2CCC(c3cc(F)cc(F)c3)N2C1=O (centres unmarked) [Compound 21]
Result block: < 1000 nM

Query block: Look at this compound and give its reported IC50. CC1(C(F)F)CN2CCC(c3cc(F)cc(C#N)c3)N2C1=O (centres unmarked) [Compound 40]
Result block: < 1000 nM

Query block: GET /values?readout=IC50&item= CC1(C)CN2CCC(c3cc(F)cc(C#N)c3)N2C1=O (centres unmarked) [Compound 5]
Result block: < 1000 nM
